Target: T1, human LAG-3 on cells (HEK293-hLAG-3 stable cell line) (human, UniProt P18627 23-525)
T1 sequence: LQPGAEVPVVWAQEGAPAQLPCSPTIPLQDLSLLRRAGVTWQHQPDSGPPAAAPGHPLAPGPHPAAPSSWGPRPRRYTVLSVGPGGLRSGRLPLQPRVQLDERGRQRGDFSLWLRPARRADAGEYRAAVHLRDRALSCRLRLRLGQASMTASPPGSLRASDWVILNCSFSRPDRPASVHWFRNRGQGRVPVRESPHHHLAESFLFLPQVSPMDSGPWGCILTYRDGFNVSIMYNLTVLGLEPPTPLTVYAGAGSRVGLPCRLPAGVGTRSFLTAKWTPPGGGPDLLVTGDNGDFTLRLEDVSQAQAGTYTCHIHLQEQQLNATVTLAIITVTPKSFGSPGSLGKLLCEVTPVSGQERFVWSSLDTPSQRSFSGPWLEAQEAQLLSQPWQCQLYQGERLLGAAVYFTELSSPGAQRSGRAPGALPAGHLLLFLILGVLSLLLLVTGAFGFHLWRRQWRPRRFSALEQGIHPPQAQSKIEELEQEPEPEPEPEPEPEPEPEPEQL
Experiment: FACS, HEK293-hLAG-3, antibody 8 nM
Classify as follows. Reported Mean fluorescence intensity greater than or equal to 80: Y. Reported Mean fluorescence intensity below: N.

Observe how each entry below is paired with its result.
BINDER	CATEGORY
556F6B8-7 humanized antibody (antibody, V domains shown) VH: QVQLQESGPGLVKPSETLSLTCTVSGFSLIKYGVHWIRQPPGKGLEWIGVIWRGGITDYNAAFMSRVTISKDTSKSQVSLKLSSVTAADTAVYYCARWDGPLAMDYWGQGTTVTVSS VL: DIVLTQSPSFLSASVGDRVTITCKASQDVGTTVAWYQQKPGKAPKLLIYWASTRHTGVPSRFSGSGSGTEFTLTISSLQPEDFATYYCQQYSSYPYTFGQGTKLEIK	Y
556F6B8-11 humanized antibody (antibody, V domains shown) VH: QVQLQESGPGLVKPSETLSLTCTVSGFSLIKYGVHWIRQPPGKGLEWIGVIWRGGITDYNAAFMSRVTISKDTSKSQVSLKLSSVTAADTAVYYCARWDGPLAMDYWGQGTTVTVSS VL: DIVLTQSPSFLSASVGDRVTITCKASQDVGTTVAWYQQKPGKSPKLLIYWASTRHTGVPSRFSGSGSGTEFTLTISSLQPEDFATYYCQQYSSYPYTFGQGTKLEIK	Y
556F6B8-3 humanized antibody (antibody, V domains shown) VH: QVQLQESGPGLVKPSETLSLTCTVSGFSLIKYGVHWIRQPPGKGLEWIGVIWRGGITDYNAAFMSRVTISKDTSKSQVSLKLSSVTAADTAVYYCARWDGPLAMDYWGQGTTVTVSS VL: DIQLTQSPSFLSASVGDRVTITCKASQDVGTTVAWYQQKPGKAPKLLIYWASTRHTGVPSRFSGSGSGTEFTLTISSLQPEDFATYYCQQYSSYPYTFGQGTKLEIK	Y
556F6B8-10 humanized antibody (antibody, V domains shown) VH: QVQLQESGPGLVKPSETLSLTCTVSGFSIIKYGVHWIRQPPGKGLEWIGVIWRGGITDYNAAFMSRVTISVDTSKNQFSLKLSSVTAADTAVYYCARWDGPLAMDYWGQGTTVTVSS VL: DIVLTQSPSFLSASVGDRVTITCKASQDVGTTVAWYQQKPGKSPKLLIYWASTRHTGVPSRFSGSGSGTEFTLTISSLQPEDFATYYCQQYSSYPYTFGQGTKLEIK	N
556F6B8 mouse-human chimeric antibody (antibody, V domains shown, also called mAb123-556F6B8; 556F8B8) VH: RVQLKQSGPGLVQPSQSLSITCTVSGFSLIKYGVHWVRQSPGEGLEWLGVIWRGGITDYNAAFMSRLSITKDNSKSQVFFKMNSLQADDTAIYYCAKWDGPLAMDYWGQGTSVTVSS VL: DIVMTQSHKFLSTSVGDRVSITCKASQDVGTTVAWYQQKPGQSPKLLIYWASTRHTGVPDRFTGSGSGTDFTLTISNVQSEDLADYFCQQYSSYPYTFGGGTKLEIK	Y
556F6B8-5 humanized antibody (antibody, V domains shown) VH: QVQLQESGPGLVKPSETLSLTCTVSGGSISKYGVHWIRQPPGKGLEWIGVIWRGGITDYNAAFMSRVTISVDTSKNQFSLKLSSVTAADTAVYYCARWDGPLAMDYWGQGTTVTVSS VL: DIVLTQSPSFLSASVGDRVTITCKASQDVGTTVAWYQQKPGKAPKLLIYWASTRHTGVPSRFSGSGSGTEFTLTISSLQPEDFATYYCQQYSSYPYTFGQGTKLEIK	N

Determine whether this binder has Mean fluorescence intensity no lower than 80: 556F6B8-4 humanized antibody (antibody, V domains shown) VH: RVQLQESGPGLVKPSETLSLTCTVSGFSLIKYGVHWIRQPPGKGLEWIGVIWRGGITDYNAAFMSRVTISKDTSKSQVSLKLSSVTAADTAVYYCAKWDGPLAMDYWGQGTTVTVSS VL: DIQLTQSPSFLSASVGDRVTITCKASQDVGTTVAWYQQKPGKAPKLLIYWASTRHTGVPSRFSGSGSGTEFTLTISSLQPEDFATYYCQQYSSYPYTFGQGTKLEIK
N

Determine whether this binder has Mean fluorescence intensity no lower than 80: 556F6B8-9 humanized antibody (antibody, V domains shown) VH: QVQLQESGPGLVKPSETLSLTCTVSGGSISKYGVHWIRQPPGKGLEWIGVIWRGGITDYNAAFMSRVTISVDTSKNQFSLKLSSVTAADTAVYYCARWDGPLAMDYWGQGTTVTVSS VL: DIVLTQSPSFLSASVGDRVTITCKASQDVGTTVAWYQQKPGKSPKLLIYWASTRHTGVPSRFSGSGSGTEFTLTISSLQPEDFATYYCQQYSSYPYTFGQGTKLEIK
N

Determine whether this binder has Mean fluorescence intensity no lower than 80: 556F6B8-2 humanized antibody (antibody, V domains shown) VH: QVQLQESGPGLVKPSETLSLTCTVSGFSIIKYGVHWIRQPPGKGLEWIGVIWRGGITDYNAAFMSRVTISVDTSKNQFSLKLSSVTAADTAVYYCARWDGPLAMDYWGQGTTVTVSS VL: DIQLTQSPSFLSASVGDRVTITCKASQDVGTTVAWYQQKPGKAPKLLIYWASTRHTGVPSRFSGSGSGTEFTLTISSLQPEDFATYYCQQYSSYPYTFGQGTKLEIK
N

Determine whether this binder has Mean fluorescence intensity no lower than 80: 556F6B8-12 humanized antibody (antibody, V domains shown) VH: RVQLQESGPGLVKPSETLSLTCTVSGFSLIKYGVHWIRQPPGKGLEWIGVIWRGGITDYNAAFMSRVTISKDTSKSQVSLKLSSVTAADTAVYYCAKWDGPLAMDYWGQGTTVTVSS VL: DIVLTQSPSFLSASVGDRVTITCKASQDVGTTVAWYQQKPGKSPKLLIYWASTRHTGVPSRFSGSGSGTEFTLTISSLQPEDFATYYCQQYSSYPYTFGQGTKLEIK
Y
